Target: human PD-L1 (human) (UniProt Q9NZQ7)
Sequence (Q9NZQ7 19-290): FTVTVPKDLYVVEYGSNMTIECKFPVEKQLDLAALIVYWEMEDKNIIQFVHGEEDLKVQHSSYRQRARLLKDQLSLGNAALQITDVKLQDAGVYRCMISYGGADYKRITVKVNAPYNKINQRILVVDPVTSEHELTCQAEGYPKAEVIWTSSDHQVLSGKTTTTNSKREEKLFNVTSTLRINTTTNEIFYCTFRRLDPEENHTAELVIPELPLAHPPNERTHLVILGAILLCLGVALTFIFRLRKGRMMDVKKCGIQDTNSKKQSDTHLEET
Test: flow cytometry, MFI on PD-L1 over MFI on CD28
PROPERTY_LABEL: Ratio of PDL1:CD28
Answer as a number with no unit attached.

Worked set:
[
  {
    "BINDER": "CD80 E35D/T41S/D46E/M47I/V68M/K93R/E95V IgV-Fc (Fc fusion) VIHVTKEVKEVATLSCGHNVSVEELAQTRIYWQKDKKMVLSMMSGEINIWPEYKNRTIFDITNNLSIMILALRPSDEGTYECVVLKYEKDAFRRVHLAEVTLSVKAD",
    "PROPERTY_LABEL": "Ratio of PDL1:CD28",
    "NUMERIC_RESULT": 31.1
  },
  {
    "BINDER": "CD80 T13R/Q33R/E35D/M47L/V68M IgV-Fc (Fc fusion) VIHVTKEVKEVARLSCGHNVSVEELAQTRIYWRKDKKMVLTMMSGDLNIWPEYKNRTIFDITNNLSIMILALRPSDEGTYECVVLKYEKDAFKREHLAEVTLSVKAD",
    "PROPERTY_LABEL": "Ratio of PDL1:CD28",
    "NUMERIC_RESULT": 1040
  },
  {
    "BINDER": "CD80 E35D/M47V/N48K/V68M/L85M IgV-Fc (Fc fusion) VIHVTKEVKEVATLSCGHNVSVEELAQTRIYWQKDKKMVLTMMSGDVKIWPEYKNRTIFDITNNLSIMILALRPSDEGTYECVVMKYEKDAFKREHLAEVTLSVKAD",
    "PROPERTY_LABEL": "Ratio of PDL1:CD28",
    "NUMERIC_RESULT": 31.1
  }
]

Q: So what does the record say about Ratio of PDL1:CD28 for CD80 T13R/Q33R/E35D/M47L/V68M/L85M IgV-Fc (Fc fusion) VIHVTKEVKEVARLSCGHNVSVEELAQTRIYWRKDKKMVLTMMSGDLNIWPEYKNRTIFDITNNLSIMILALRPSDEGTYECVVMKYEKDAFKREHLAEVTLSVKAD ?
Ans: 169
